- experimentalProtocol: Toxicity (LD50)
- settings: in vivo; PO; species not given
observationType: LD50

>>> print(df.to_string())
                                entrysmiles    assayvalue
0  Cc1nc(Cl)c2c(n1)CN=C(c1ccccc1)c1cc(Cl)ccc1-2  > 1000 mg/kg
